System: Escherichia coli TOP10
Assay: shrunken log2 fold change of peptide-encoding DNA abundance (4.5 h post-induction vs induction); higher = less antimicrobial activity (less host growth inhibition)
Conditions: time post-induction: 4.5 h; library: site-saturation at positions 5, 18, 19, 20
Classification field: enter Y for shrunken log2 fold change values not below -0.1, N for values below it.

- Sequence String: "RRIRDRPPRLPRPRPRPWPDPRP"
  Tested System: "Escherichia coli TOP10"
  Label Class: "Y"
- Sequence String: "RRIRMRPPRLPRPRPRPYPTPRP"
  Tested System: "Escherichia coli TOP10"
  Label Class: "N"
- Sequence String: "RRIRMRPPRLPRPRPRPPMEPRP"
  Tested System: "Escherichia coli TOP10"
  Label Class: "Y"
- Sequence String: "RRIRFRPPRLPRPRPRPIHLPRP"
  Tested System: "Escherichia coli TOP10"
  Label Class: "N"
- Sequence String: "RRIRNRPPRLPRPRPRPTELPRP"
  Tested System: "Escherichia coli TOP10"
  Label Class: "Y"

Determine whether measured shrunken log2 fold change meets or exceeds -0.1 for "RRIRYRPPRLPRPRPRPMRPPRP"
Y

Determine whether measured shrunken log2 fold change meets or exceeds -0.1 for "RRIRPRPPRLPRPRPRPWTKPRP"
Y

Determine whether measured shrunken log2 fold change meets or exceeds -0.1 for "RRIRVRPPRLPRPRPRPSMLPRP"
N

Determine whether measured shrunken log2 fold change meets or exceeds -0.1 for "RRIRNRPPRLPRPRPRPGKMPRP"
N

Determine whether measured shrunken log2 fold change meets or exceeds -0.1 for "RRIRGRPPRLPRPRPRPYNVPRP"
N

----------
Recorded measurements of shrunken log2 fold change, one per entry
Tested on: Escherichia coli TOP10
Experiment: shrunken log2 fold change of peptide-encoding DNA abundance (4.5 h post-induction vs induction); higher = less antimicrobial activity (less host growth inhibition)
Details: time post-induction: 4.5 h; library: site-saturation at positions 5, 18, 19, 20
Simply state the number, no unit and no words.

Worked cases, answers included:
- Sequence String: "RRIRARPPRLPRPRPRPLGHPRP"
  shrunken log2 fold change: 0.134
- Sequence String: "RRIRNRPPRLPRPRPRPYHYPRP"
  shrunken log2 fold change: -0.722
- Sequence String: "RRIRERPPRLPRPRPRPWKGPRP"
  shrunken log2 fold change: -0.0443
- Sequence String: "RRIRKRPPRLPRPRPRPWFYPRP"
  shrunken log2 fold change: -0.0799
- Sequence String: "RRIRYRPPRLPRPRPRPNVMPRP"
  shrunken log2 fold change: 0.0307

Reported shrunken log2 fold change for "RRIRKRPPRLPRPRPRPSYKPRP" : what is it?
-0.692

Reported shrunken log2 fold change for "RRIRDRPPRLPRPRPRPCCDPRP" : what is it?
0.655

Reported shrunken log2 fold change for "RRIRLRPPRLPRPRPRPPIIPRP" : what is it?
-0.195

Reported shrunken log2 fold change for "RRIRCRPPRLPRPRPRPTVAPRP" : what is it?
0.0998

Reported shrunken log2 fold change for "RRIRLRPPRLPRPRPRPTHRPRP" : what is it?
0.101

----------
Test system: Escherichia coli TOP10
Test: shrunken log2 fold change of peptide-encoding DNA abundance (4.5 h post-induction vs induction); higher = less antimicrobial activity (less host growth inhibition)
Details: time post-induction: 4.5 h; library: site-saturation at positions 5, 18, 19, 20
Attribute Measured: shrunken log2 fold change

- Sequence String: "RRIRSRPPRLPRPRPRPCMHPRP"
  shrunken log2 fold change: -0.514

From here, focus on the item given below.
Reported shrunken log2 fold change for "RRIRQRPPRLPRPRPRPYEVPRP" : what is it?
-0.31

----------
Test system: Escherichia coli TOP10
Assay: shrunken log2 fold change of peptide-encoding DNA abundance (4.5 h post-induction vs induction); higher = less antimicrobial activity (less host growth inhibition)
Conditions: time post-induction: 4.5 h; library: site-saturation at positions 5, 18, 19, 20
Recorded measurements of shrunken log2 fold change, one per entry
Simply state the number, no unit and no words.

- Sequence String: "RRIRKRPPRLPRPRPRPGVPPRP"
  Tested System: "Escherichia coli TOP10"
  Reported Result: 0.364
- Sequence String: "RRIRGRPPRLPRPRPRPGENPRP"
  Tested System: "Escherichia coli TOP10"
  Reported Result: -0.0369
- Sequence String: "RRIRWRPPRLPRPRPRPRIRPRP"
  Tested System: "Escherichia coli TOP10"
  Reported Result: 0.0716
- Sequence String: "RRIRSRPPRLPRPRPRPWHVPRP"
  Tested System: "Escherichia coli TOP10"
  Reported Result: -0.0882
- Sequence String: "RRIRIRPPRLPRPRPRPQWVPRP"
  Tested System: "Escherichia coli TOP10"
  Reported Result: -0.023
- Sequence String: "RRIRPRPPRLPRPRPRPFGPPRP"
  Tested System: "Escherichia coli TOP10"
  Reported Result: -0.083

Reported shrunken log2 fold change for "RRIRDRPPRLPRPRPRPPRLPRP" : what is it?
0.144

Reported shrunken log2 fold change for "RRIRTRPPRLPRPRPRPREQPRP" : what is it?
0.198

Reported shrunken log2 fold change for "RRIRNRPPRLPRPRPRPQWIPRP" : what is it?
-0.446

Reported shrunken log2 fold change for "RRIRHRPPRLPRPRPRPCEVPRP" : what is it?
-0.00674

Reported shrunken log2 fold change for "RRIRDRPPRLPRPRPRPLRWPRP" : what is it?
0.274

Reported shrunken log2 fold change for "RRIRIRPPRLPRPRPRPWFSPRP" : what is it?
-0.201

Reported shrunken log2 fold change for "RRIRWRPPRLPRPRPRPMEPPRP" : what is it?
0.0539

Reported shrunken log2 fold change for "RRIRTRPPRLPRPRPRPGTKPRP" : what is it?
-0.122

Reported shrunken log2 fold change for "RRIRCRPPRLPRPRPRPKPCPRP" : what is it?
0.084

----------
Test system: Escherichia coli TOP10
Experiment: shrunken log2 fold change of peptide-encoding DNA abundance (4.5 h post-induction vs induction); higher = less antimicrobial activity (less host growth inhibition)
Conditions: time post-induction: 4.5 h; library: site-saturation at positions 5, 18, 19, 20
Attribute Measured: shrunken log2 fold change
Simply state the number, no unit and no words.

- Sequence String: "RRIRMRPPRLPRPRPRPMIAPRP"
  Tested System: "Escherichia coli TOP10"
  shrunken log2 fold change: 0.0314

Reported shrunken log2 fold change for "RRIRCRPPRLPRPRPRPPEPPRP" : what is it?
0.457

----------
Test system: Escherichia coli TOP10;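 also: peptides expressed intracellularly from a pBAD plasmid library in pooled LB shake-flask culture, induced with 0.3% L-arabinose, DNA abundance read by NGS, three biological replicates, DESeq2 with apeglm shrinkage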
Test: shrunken log2 fold change of peptide-encoding DNA abundance (4.5 h post-induction vs induction); higher = less antimicrobial activity (less host growth inhibition)
Details: time post-induction: 4.5 h; library: site-saturation at positions 5, 18, 19, 20
Classes (shrunken log2 fold change): lower band = under -0.1, central band = from -0.1 up to 0.04, upper band = 0.04 and over

Please review the following examples before continuing.
- Sequence String: "RRIRGRPPRLPRPRPRPLINPRP"
  Label Class: "upper band"
- Sequence String: "RRIRTRPPRLPRPRPRPRAKPRP"
  Label Class: "upper band"
- Sequence String: "RRIRRRPPRLPRPRPRPMCWPRP"
  Label Class: "central band"
- Sequence String: "RRIRSRPPRLPRPRPRPPYTPRP"
  Label Class: "lower band"
- Sequence String: "RRIRMRPPRLPRPRPRPCIIPRP"
  Label Class: "lower band"
- Sequence String: "RRIRLRPPRLPRPRPRPVGAPRP"
  Label Class: "upper band"
- Sequence String: "RRIRRRPPRLPRPRPRPRVSPRP"
  Label Class: "upper band"
- Sequence String: "RRIRQRPPRLPRPRPRPKYYPRP"
  Label Class: "lower band"
- Sequence String: "RRIRARPPRLPRPRPRPWEWPRP"
  Label Class: "central band"
- Sequence String: "RRIRMRPPRLPRPRPRPSWQPRP"
  Label Class: "upper band"

Just checking, what class would you give "RRIRQRPPRLPRPRPRPYLVPRP" here?
lower band

Just checking, what class would you give "RRIRCRPPRLPRPRPRPDIRPRP" here?
upper band

Just checking, what class would you give "RRIRARPPRLPRPRPRPNRPPRP" here?
lower band

Just checking, what class would you give "RRIRKRPPRLPRPRPRPEGIPRP" here?
central band

Just checking, what class would you give "RRIRWRPPRLPRPRPRPQWHPRP" here?
upper band

Just checking, what class would you give "RRIRYRPPRLPRPRPRPLIPPRP" here?
lower band

Just checking, what class would you give "RRIRARPPRLPRPRPRPLQKPRP" here?
upper band

Just checking, what class would you give "RRIRQRPPRLPRPRPRPGNDPRP" here?
lower band

Just checking, what class would you give "RRIRERPPRLPRPRPRPRAAPRP" here?
upper band
